Test system: Amaranthus retroflexus (AMARE)
Test: Post-emergence herbicidal action, greenhouse pot trial
Type: in vivo
Settings: Amaranthus retroflexus, 504 h, 320 g/ha, visual rating after about 3 weeks, read-out: Post-emergence effect at 320 g/ha against AMARE in %
Below: a set of entries, each annotated with reported pest or weed control at 320 g/ha.
Report as a plain number; the unit % is understood.

Please report the recorded pest or weed control at 320 g/ha for CCOC(=O)C(Oc1nn(-c2ncccc2F)c(-c2cncc(F)c2)c1Br)SC (centres unmarked) .
90

---

Tested on: Pharbitis purpurea (PHBPU)
Test: Post-emergence herbicidal action, greenhouse pot trial
Assay type: in vivo
Settings: Ipomoea purpurea, 504 h, 80 g/ha, visual rating after about 3 weeks, read-out: Post-emergence effect at 80 g/ha against PHBPU in %
parameter: pest or weed control at 80 g/ha (%)
Report as a plain number; the unit % is understood.

Solved cases (5 shown):
Field: pest or weed control at 80 g/ha (Pharbitis purpurea (PHBPU)). Entry: COC(=O)C(Oc1nn(-c2cc(F)ccc2F)c(-c2cncc(F)c2)c1C1CC1)SC (centres unmarked) [Example I-08]
80

Field: pest or weed control at 80 g/ha (Pharbitis purpurea (PHBPU)). Entry: CCOC(=O)C(Oc1nn(-c2ncccc2F)c(-c2ccc(F)nc2)c1Cl)SC (centres unmarked) [Example I-19]
80

Field: pest or weed control at 80 g/ha (Pharbitis purpurea (PHBPU)). Entry: CSC(Oc1nn(-c2ncccc2F)c(-c2ccc(F)nc2)c1Br)C(=O)O (single isomer, unassigned) [Example I-24]
90

Field: pest or weed control at 80 g/ha (Pharbitis purpurea (PHBPU)). Entry: CSC(Oc1nn(-c2ncccc2F)c(-c2cncc(F)c2)c1Br)C(=O)O (centres unmarked) [Example I-42]
80

Field: pest or weed control at 80 g/ha (Pharbitis purpurea (PHBPU)). Entry: COC(=O)C(Oc1nn(-c2ncccc2F)c(-c2ccc(F)nc2)c1Cl)SC (centres unmarked) [Example I-56]
90

Continuing:
Field: pest or weed control at 80 g/ha (Pharbitis purpurea (PHBPU)). Entry: CCOC(=O)C(Oc1nn(-c2ncccc2F)c(-c2ccc(F)nc2)c1Br)SC (centres unmarked) [Example I-13]
80

Field: pest or weed control at 80 g/ha (Pharbitis purpurea (PHBPU)). Entry: CCOC(=O)C(Oc1nn(-c2ncccc2F)c(-c2cncc(F)c2)c1Br)SC (centres unmarked) [Example I-39]
80

Field: pest or weed control at 80 g/ha (Pharbitis purpurea (PHBPU)). Entry: CSC(Oc1nn(-c2ncccc2F)c(-c2ccc(F)nc2)c1Br)C(=O)O (centres unmarked) [Example I-34]
80

---

Below: a set of entries, each annotated with reported Post-emergence effect against VIOTR.
Test system: Viola tricolor (VIOTR)
Test: Post-emergence herbicidal action, greenhouse pot trial
Format: in vivo
Details: 80 g/ha
Report as a plain number; the unit % is understood.

Solved cases (3 shown):
Please report the recorded Post-emergence effect against VIOTR for COC(=O)CCOC(=O)C(Oc1nn(-c2ncccc2F)c(-c2ccc(F)nc2)c1Br)SC (single isomer, unassigned) [Example I-23] .
80

Please report the recorded Post-emergence effect against VIOTR for CCOC(=O)C(Oc1nn(-c2ncccc2F)c(-c2ccc(F)nc2)c1Br)SC (single isomer, unassigned) .
80

Please report the recorded Post-emergence effect against VIOTR for COC(=O)CCOC(=O)C(Oc1nn(-c2ccccc2F)c(-c2ccc(F)nc2)c1I)SC (stereo not shown) .
80

Switching to the query record.
Please report the recorded Post-emergence effect against VIOTR for COC(=O)CCOC(=O)C(Oc1nn(-c2ncccc2F)c(-c2cncc(F)c2)c1C1CC1)SC (stereo not shown) .
90
